Quick note: these are CC50 numbers for system: MT-2 cells

>  <SMILES_NOTATION>
C#CCN1C(=O)S/C(=C\c2ccc(-c3cccc(C(=O)O)c3)o2)C1=O

>  <TARGET_SYSTEM>
MT-2 cells

>  <RESULT_UNITS>
µM

>  <REPORTED_RELATION>
=

>  <CC50>
55.3

$$$$
>  <SMILES_NOTATION>
CCOC(=O)CN1C(=O)S/C(=C\c2ccc(-c3ccc(Cl)c(C(=O)O)c3)o2)C1=O

>  <TARGET_SYSTEM>
MT-2 cells

>  <RESULT_UNITS>
µM

>  <REPORTED_RELATION>
>

>  <CC50>
366

$$$$
>  <SMILES_NOTATION>
Cc1ccc(C(=O)O)cc1-c1ccc(/C=C2\SC(=S)NC2=O)o1

>  <TARGET_SYSTEM>
MT-2 cells

>  <RESULT_UNITS>
µM

>  <REPORTED_RELATION>
=

>  <CC50>
197

$$$$
>  <SMILES_NOTATION>
O=C1NC(=S)S/C1=C\c1ccc(-c2ccc(Cl)c(C(=O)O)c2)o1

>  <TARGET_SYSTEM>
MT-2 cells

>  <RESULT_UNITS>
µM

>  <REPORTED_RELATION>
>

>  <CC50>
437

$$$$
>  <SMILES_NOTATION>
CN1C(=O)S/C(=C\c2ccc(-c3cc(C(=O)O)ccc3Cl)o2)C1=O

>  <TARGET_SYSTEM>
MT-2 cells

>  <RESULT_UNITS>
µM

>  <REPORTED_RELATION>
>

>  <CC50>
440

$$$$
